System: NCI-H460 lung
Outcome codes: active, inactive

[[record]]
record_smiles = "COc1cc(NC(=O)c2cc(O)c(C/C=C(\\C)CCC=C(C)C)c(O)c2)cc2c1O[C@]1(C)CC[C@@H](O)C(C)(C)[C@H]1C2"
classification = "inactive"

[[record]]
record_smiles = "COc1ccc(CN=C(N)N=C(N)N)cc1OC"
classification = "inactive"

[[record]]
record_smiles = "COc1ccc2c(c1)C=C1CSCC3=Cc4cc(OC)ccc4OC13O2"
classification = "active"

[[record]]
record_smiles = "CCC(=O)c1c(C(F)(F)F)n([O-])c2ccccc2[n+]1=O"
classification = "inactive"

[[record]]
record_smiles = "Cc1cn(Cc2ccccc2CCl)c(=O)n(Cc2ccccc2CCl)c1=O"
classification = "inactive"


====

Test system: K-562 leukemia
METHOD_NOTES: NCI tumour cell line growth inhibition, 48 h
Measured TGI values are reported for all entries that follow.
PROPERTY_NAME: TGI

[[record]]
molecule = "O=C1OC(OC/C(Br)=C(/Br)COC2OC(=O)C(Cl)=C2Cl)C(Cl)=C1Cl (stereo not drawn)"
tested_on = "K-562 leukemia"
experimental_value = "5.85 µM"

[[record]]
molecule = "COc1ccc2c(c1OC)C(=O)O[C@@H]2[C@H]1c2c(c(Br)c3c(c2OC)OCO3)CCN1C"
tested_on = "K-562 leukemia"
experimental_value = "> 100 µM"

[[record]]
molecule = "CC(C)=CCc1cc(C2COc3cc4c(c(O)c3C2=O)C=CC(C)(C)O4)c(O)cc1O (stereo not drawn)"
tested_on = "K-562 leukemia"
experimental_value = "10.7 µM"

[[record]]
molecule = "Cc1ccc(-c2c3c(N)c4c(nc3nc3c2c(C)nn3-c2ccccc2)CCC4)cc1"
tested_on = "K-562 leukemia"
experimental_value = "6.56 µM"

[[record]]
molecule = "CCN1C(=O)CS/C1=N\\NC(=O)CSc1nc2ccccc2c(=O)n1CC"
tested_on = "K-562 leukemia"
experimental_value = "> 100 µM"

[[record]]
molecule = "CCOC(=O)C1Oc2ccc([N+](=O)[O-])cc2C1(C)O (stereo not drawn)"
tested_on = "K-562 leukemia"
experimental_value = "> 100 µM"

[[record]]
molecule = "O=C(O)CO/N=C1/C(c2c(O)[nH]c3ccccc23)=Nc2ccccc21"
tested_on = "K-562 leukemia"
experimental_value = "> 100 µM"

[[record]]
molecule = "NC(=S)N/N=C/c1ccc(OC(=O)COc2ccccc2Cl)cn1"
tested_on = "K-562 leukemia"
experimental_value = "> 100 µM"


====

System: SF-295 CNS
METHOD_NOTES: NCI tumour cell line growth inhibition, 48 h
Measured GI50 values are reported for all entries that follow.
PROPERTY_NAME: GI50

[[record]]
molecule = "C=C1C(=O)O[C@H]2[C@H]1CC/C(CNC(=O)/C=C/c1ccc(Cl)cc1Cl)=C\\CC[C@@]1(C)O[C@@H]21"
tested_on = "SF-295 CNS"
experimental_value = "1620 nM"

[[record]]
molecule = "Cn1ncnc1C1c2n[nH]c(=O)c3cc(F)cc(c23)NC1c1ccc(F)cc1 (stereo not drawn)"
tested_on = "SF-295 CNS"
experimental_value = "1010 nM"

[[record]]
molecule = "COc1ccc(C=C2C(=O)NC(=O)NC2=O)cc1OCc1ccccc1"
tested_on = "SF-295 CNS"
experimental_value = "32.5 µg/mL"


====

Measured TGI values are reported for all entries that follow.
Test system: NCI-H226 lung
METHOD_NOTES: NCI tumour cell line growth inhibition, 48 h
*1 amine or outer side, *2 acyl side, *3 side chain or, on linkers, in order; H or OH if unused. Where a SMILES comes first, the peptide text is derived from it. [ ]: non-standard residue; d: D form. The star is where a group is joined. X31 = CC(=O)N(C)SCC(N[*:1])C(=O)[*:2]; Fmoc = O=C(OCC1c2ccccc2-c2ccccc21)*; For = O=C*
PROPERTY_NAME: TGI

[[record]]
molecule = "O=[N+]([O-])c1ccc2[nH]c(O)c(N=NC(=S)Nc3ccccc3)c2c1"
tested_on = "NCI-H226 lung"
experimental_value = "65.4 µM"

[[record]]
molecule = "O=C(Nc1ccc(S(=O)(=O)Nc2ncccn2)cc1)c1c2ccccc2nc2ccccc12"
tested_on = "NCI-H226 lung"
experimental_value = "> 100 µM"

[[record]]
molecule = "COc1ccc(OC)c(/C=N/N=C2\\C(=O)Nc3c(Cl)cc(Cl)cc32)c1"
tested_on = "NCI-H226 lung"
experimental_value = "> 100 µM"

[[record]]
molecule = "CC(Cc1ccc2c(c1)OCO2)N(C)C(=O)C1=CCN(C)CC1 (configuration not stated)"
tested_on = "NCI-H226 lung"
experimental_value = "> 100 µM"

[[record]]
molecule = "Clc1ccc(/C=C/c2nc(Cl)c(-c3ccc(Cl)cc3)c(Cl)n2)cc1"
tested_on = "NCI-H226 lung"
experimental_value = "> 100 µM"

[[record]]
molecule = "Cc1ccc(-c2c3c(N)c4c(nc3nc3c2c(C)nn3-c2ccccc2)CCC4)cc1"
tested_on = "NCI-H226 lung"
experimental_value = "53.7 µM"

[[record]]
molecule = "CCCCCCC(=O)OC[n+]1cccc(-c2c(COC(=O)NC(C)C)c(COC(=O)NC(C)C)c3n2CCC3)c1"
tested_on = "NCI-H226 lung"
experimental_value = "> 100 µM"

[[record]]
molecule = "COc1ccccc1N1C(=O)CC(=O)N(C(=O)CCCCCCCCC(=O)N2C(=O)CC(=O)N(c3ccccc3OC)C2=S)C1=S"
tested_on = "NCI-H226 lung"
experimental_value = "> 100 µM"

[[record]]
molecule = "O=C1c2ccn(CCCCN(CCO)CCO)c2C(=O)c2c1c(O)c1ccccc1c2O"
tested_on = "NCI-H226 lung"
experimental_value = "> 100 µM"

[[record]]
molecule = "NCCSC(C[N+](=O)[O-])c1ccccc1Cl (configuration not stated)"
tested_on = "NCI-H226 lung"
experimental_value = "5.55 µM"

[[record]]
molecule = "NCCC1([N+](=O)[O-])CCNCC1"
tested_on = "NCI-H226 lung"
experimental_value = "> 100 µM"

[[record]]
molecule = "Cc1ccc(Nc2cn(COCc3ccccc3)c(=O)[nH]c2=O)cc1"
tested_on = "NCI-H226 lung"
experimental_value = "> 100 µM"

[[record]]
molecule = "COc1cc2c(cc1OCCCCN1CCN(CCCCOc3cc4c(cc3OC)C(=O)N3CCC[C@H]3C=N4)CC1)N=C[C@@H]1CCCN1C2=O"
tested_on = "NCI-H226 lung"
experimental_value = "0.0891 µM"

[[record]]
molecule = "Cc1ccccc1NC(=O)c1cc2ccccc2cc1O"
tested_on = "NCI-H226 lung"
experimental_value = "> 100 µM"

[[record]]
molecule = "COc1cc(NC(=O)c2cc(O)c(C/C=C(\\C)CCC=C(C)C)c(O)c2)cc2c1O[C@]1(C)CC[C@@H](O)C(C)(C)[C@H]1C2"
tested_on = "NCI-H226 lung"
experimental_value = "16.2 µM"

[[record]]
molecule = "COc1ccccc1Cn1[nH]c(=O)c2cc([N+](=O)[O-])ccc21"
tested_on = "NCI-H226 lung"
experimental_value = "> 100 µM"

[[record]]
molecule = "CCCc1cc(-c2ccc(-c3cc(CCC)c(C=O)[nH]3)s2)[nH]c1C=O"
tested_on = "NCI-H226 lung"
experimental_value = "> 100 µM"

[[record]]
molecule = "COC1OC(C(C)O)C2OC(C)(C)OC12 (configuration not stated)"
tested_on = "NCI-H226 lung"
experimental_value = "> 100 µM"

[[record]]
molecule = "CC1=C(C(=O)NC(C)(C)C)CC(C(=O)NC(C)(C)C)C(C)N1 (configuration not stated)"
tested_on = "NCI-H226 lung"
experimental_value = "> 100 µM"

[[record]]
molecule = "CN(C)c1ncnc2c1ccn2C1OC(CO)C(O)C1O (configuration not stated)"
tested_on = "NCI-H226 lung"
experimental_value = "> 100 µM"

[[record]]
molecule = "Cn1ncnc1C1c2n[nH]c(=O)c3cc(F)cc(c23)NC1c1ccc(F)cc1 (configuration not stated)"
tested_on = "NCI-H226 lung"
experimental_value = "> 100 µM"

[[record]]
molecule = "NNC(=S)N/N=C(/C(=O)Nc1ccc([N+](=O)[O-])cc1)c1nc2ccc([N+](=O)[O-])cc2[nH]c1=O"
tested_on = "NCI-H226 lung"
experimental_value = "> 100 µM"

[[record]]
molecule = "O=C(CC(=O)c1ccccc1)C(=O)NC12CC3CC(CC(C3)C1)C2"
tested_on = "NCI-H226 lung"
experimental_value = "> 100 µM"

[[record]]
molecule = "N#CC(C(=O)CCC(=O)Nc1ccc(Cl)c(Cl)c1)c1ccc(Cl)cc1 (configuration not stated)"
tested_on = "NCI-H226 lung"
experimental_value = "> 100 µM"

[[record]]
molecule = "CCSC12CC3c4cccc5c4C(CN5C(=O)c4ccccc4)CC3(O1)N(C)C2=O (configuration not stated)"
tested_on = "NCI-H226 lung"
experimental_value = "> 100 µM"

[[record]]
molecule = "COc1nc(C)nc2c1ncn2Cc1ccccc1"
tested_on = "NCI-H226 lung"
experimental_value = "> 100 µM"

[[record]]
molecule = "CC(=O)N(C)SCC(NC(=O)C(Cc1ccccc1)NC(=O)OCC1c2ccccc2-c2ccccc21)C(=O)NC(Cc1ccccc1)C(=O)NC(Cc1cn(C=O)c2ccccc12)C(=O)NC(CCCCNC(=O)OCC1c2ccccc2-c2ccccc21)C(=O)NC(C(=O)NC(CSN(C)C(C)=O)C(=O)NC(C(N)=O)C(C)O)C(C)O (configuration not stated) (Fmoc-F[X31]FW(For)K(Fmoc)T[X31]T-NH2; configuration not given here)"
tested_on = "NCI-H226 lung"
experimental_value = "> 100 µM"

[[record]]
molecule = "NC(=S)N/N=C/c1ccc(OC(=O)COc2ccccc2Cl)cn1"
tested_on = "NCI-H226 lung"
experimental_value = "73.9 µM"

[[record]]
molecule = "Cc1ccc(Nc2nc(C)c(C(/C=C/c3ccc4c(c3)OCO4)=N/Nc3ccc([N+](=O)[O-])cc3[N+](=O)[O-])s2)c([N+](=O)[O-])c1"
tested_on = "NCI-H226 lung"
experimental_value = "90.1 µM"

[[record]]
molecule = "COC1C(O)C(C)OC(O[C@@H]2C[C@H]3CC[C@@H]4[C@H](CC[C@]5(C)[C@@H](C6=CC(=O)OC6)CC[C@]45O)[C@@]3(C)[C@H](O)C2)C1O (some centres not stated)"
tested_on = "NCI-H226 lung"
experimental_value = "0.532 µM"

[[record]]
molecule = "CCSC(=O)C1(C)OC2CCCCC2C1=O (configuration not stated)"
tested_on = "NCI-H226 lung"
experimental_value = "> 100 µM"

[[record]]
molecule = "COc1cc2nncc(SCc3ccc(Cl)c(Cl)c3)c2cc1OC"
tested_on = "NCI-H226 lung"
experimental_value = "> 100 µM"

[[record]]
molecule = "O=CN1N=C(c2ccc(Nc3ccnc4cc(Cl)ccc34)cc2)CC1c1ccc(Cl)cc1 (configuration not stated)"
tested_on = "NCI-H226 lung"
experimental_value = "> 100 µM"

[[record]]
molecule = "Cc1cc(C(O)CNC(C)CCn2cnc3c2c(=O)n(C)c(=O)n3C)ccc1O (configuration not stated)"
tested_on = "NCI-H226 lung"
experimental_value = "> 100 µM"

[[record]]
molecule = "N#CCN(Cc1ccccc1)[C@@H]1CCC[C@]1(O)C#Cc1ccc2c(c1)OCO2"
tested_on = "NCI-H226 lung"
experimental_value = "33.6 µM"

[[record]]
molecule = "COc1cc2nc(N3CCC[C@@H](NC4=CC(=O)c5ccccc5C4=O)C3)nc(N)c2cc1OC"
tested_on = "NCI-H226 lung"
experimental_value = "52.7 µM"

[[record]]
molecule = "CN(C)C(=S)SCC(N)=O"
tested_on = "NCI-H226 lung"
experimental_value = "> 100 µM"

